Experiment: U-118MG Cancer Cell Toxicity qHTS against the NCATS CANVASS Library (AID 1347351)
Conditions: U-118MG viability, CellTiter-Glo luminescence, 72 h; series mostly up to 38.3 µM
Records with an inconclusive call do not appear. Active and inactive are the calls of the source. Calls come from the whole dose curve; as a rule, active = well fitted cell-killing curve with a large enough effect; inconclusive = small, poorly fitted or top-dose-only effect; inactive = flat fitted curve, though single readings scatter.
Mark one answer only. Choices: y for active, n for inactive

Check out these entries, answers already filled in.
CCCCC1CC[C@H]2CCCC(CCC)N12 (some centres undefined): n
c1ccc2nc3c(cc2c1)[nH]c1ccccc13: n
C=CC(C)(C)[C@@]12C[C@H]3C(=O)N/C(=C/c4cnc[nH]4)C(=O)N3[C@@H]1Nc1ccccc12: n
C[C@]12CC(O)C3[C@@H](CC[C@@H]4C[C@@H](O)CC[C@]34CO)[C@@]1(O)CC[C@@H]2C1=CC(=O)OC1 (some centres undefined): y
CCCC[C@@H](C)/C=C1/CN2CCC[C@H]2[C@@](C)(O)[C@@H]1O: n

Check the results log: what was the call for C=C(C)[C@H]1C(=O)c2c3c(cc4c5c(n1c24)[C@@]1(C)[C@@H](CC[C@H]2[C@](C)(/C=C/C=C(\C)C(=O)O)[C@@H](O)CC[C@@]21C)C5)C1=CC(C)(C)OC(C)(C)[C@H]1[C@@H]3O ?
y

Check the results log: what was the call for CC(C)CC1C(=O)O[C@H](C(C)C)C(=O)N(C)C(CC(C)C)C(=O)O[C@@H](C(C)C)C(=O)N(C)C(CC(C)C)C(=O)O[C@H](C(C)C)C(=O)N(C)C(CC(C)C)C(=O)O[C@@H](C(C)C)C(=O)N1C (some centres undefined) ?
n

Check the results log: what was the call for C1=C2CCCN[C@H]2C2CC1[C@H]1CCCCN1C2 (some centres undefined) ?
n

* * *

Test: Primary qHTS to identify inhibitors of SARS-CoV-2 cell entry (AID 1645846); note: nearly all actives have a fitted effect of over 45% in size
Conditions: SARS-CoV-2 pseudovirus cell entry assay, luminescence; at 57.1 µM (top of the series) unless noted
Results filed as inconclusive are left out.
Reported activity change, negative = inhibition by item:
Note: unit % is implicit; provide only the numeric part.

These solved cases illustrate the format of a correct answer.
NCCCC[C@H](NC(=O)[C@@H]1CCCN1C(=O)[C@@H]1CSSC[C@H](N)C(=O)N[C@@H](Cc2ccccc2)C(=O)N[C@@H](Cc2ccccc2)C(=O)N[C@@H](CCC(N)=O)C(=O)N[C@@H](CC(N)=O)C(=O)N1)C(=O)NCC(N)=O: -27.3
COC(=O)[C@@]12OC[C@]34[C@H]([C@@H](O)[C@@H]1O)[C@@]1(C)CC(=O)C(O)=C(C)[C@@H]1C[C@H]3OC(=O)[C@H](OC(=O)/C=C(\C)C(C)C)[C@@H]24: -94.1
C[C@H]1C[C@@H]2[C@H]([C@@H](O)C[C@@]3(C)[C@H]2CC[C@]3(O)C(=O)COC(=O)CCC(=O)O)[C@@]2(C)C=CC(=O)C=C12: -18.6
C[C@H]1[C@H](O)[C@@H](C)/C=C/C=C/CC/C=C/C=C/C=C/C=C/[C@H](O[C@@H]2O[C@H](C)[C@@H](O)[C@H](N)[C@@H]2O)C[C@@H]2O[C@](O)(C[C@@H](O)[C@H](O)CC[C@@H](O)C[C@@H](O)C[C@@H](O)CC(=O)O[C@H]1C)C[C@H](O)[C@H]2C(=O)O: -39.7
CCOC(=O)CCC(=O)O[C@H]1[C@H](O[C@@H]2[C@@H](C)[C@H](O[C@H]3C[C@@](C)(OC)[C@@H](O)[C@H](C)O3)[C@@H](C)C(=O)O[C@H](CC)[C@@](C)(O)[C@H](O)[C@@H](C)C(=O)[C@H](C)CC2(C)O)O[C@H](C)C[C@@H]1N(C)C (stereo partly drawn): -2.45
Nc1nc(CC(=O)Nc2ccc(CCNC[C@H](O)c3ccccc3)cc2)cs1: -24.2
Cc1nnc(C(C)C)n1C1CC2CCC(C1)N2CCC(NC(=O)C1CCC(F)(F)CC1)c1ccccc1 (stereo not drawn): -24.8
Cn1cc(/C=C2\C(=O)Nc3cccnc32)c2ccccc21: -43.1
CC(=O)OC1CCC2(C)C(=CCC3C2CCC2(C)C(c4cccnc4)=CCC32)C1 (stereo not drawn): -20
C=C1[C@H](OC(=O)/C=C(\C)CC)C[C@@H](C(C)C)[C@@H]2[C@H]([C@@H](C)OC(C)=O)C(=O)C[C@@H]12: -14.8

Quick one: activity change, negative = inhibition for NS(=O)(=O)c1ccc(S(=O)(=O)Nc2cccc3c(Cl)c[nH]c23)cc1 ?
-3.77

Quick one: activity change, negative = inhibition for COC(=S)NCCn1c([N+](=O)[O-])cnc1C ?
-22.7
